# system: T1, HuMER (R26-A499) (human, UniProt Q12866 26-499)
# T1 construct: Extracellular domain with both Ig-like and both fibronectin-like domains; also called human MerTK extracellular domain
# T1 sequence: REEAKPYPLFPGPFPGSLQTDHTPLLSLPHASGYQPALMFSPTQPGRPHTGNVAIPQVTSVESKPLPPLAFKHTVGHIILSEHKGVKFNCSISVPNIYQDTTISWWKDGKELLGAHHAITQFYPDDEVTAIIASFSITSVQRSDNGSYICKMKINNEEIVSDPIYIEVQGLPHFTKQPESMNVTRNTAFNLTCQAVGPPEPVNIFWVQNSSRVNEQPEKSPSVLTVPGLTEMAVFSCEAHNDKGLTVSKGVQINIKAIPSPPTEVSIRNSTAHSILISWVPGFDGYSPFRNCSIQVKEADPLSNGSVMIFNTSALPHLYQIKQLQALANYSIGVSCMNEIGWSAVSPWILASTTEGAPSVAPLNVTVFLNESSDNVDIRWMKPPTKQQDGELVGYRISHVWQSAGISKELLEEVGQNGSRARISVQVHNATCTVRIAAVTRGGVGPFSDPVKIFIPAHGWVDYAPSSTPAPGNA
# method.description: SPR BIAcore T200, Ab captured, 25C
Reported Kd values for a set of binders

binder | unit.of.measurement | Kd
Rbt13D8 (antibody, V domains shown, Recombinant rabbit monoclonal antibody, Expi293, protein A purified) VH: QSLEESGGRLVTPGTPLTLTCTVSGFSFSSYSMGWVRQAPGKGPEYIGVISASGTTYYASWVNGRFTISKTSTTMDLKMTSPTAADTATYFCARAAFTAYNRGSCVIHRLDLWGQGTLVTVSS VL: AQVLTQTASSVSAAVGGTVTINCQASQSVYDSKWLAWYQQKPGQPPKLLIYSASTLASGVPSRFKGSGSGTQFTLTISDLECDDAATYYCAGAYTDNIVFGGGTEVVVK | nM | 4.3
Rbt18G7 (antibody, V domains shown, Recombinant rabbit monoclonal antibody, Expi293, protein A purified) VH: QSLEESGGRLVTPGTPLTLTCTVSGIDLSSYALGWVRQAPGKGLEYIGIISSTGTTYYATWAKGRFTISKTSSTTVDLKITGPTTEDTATYFCARGAYAGYVAFGPYYFHIWGPGTLVTISL VL: DIVMTQTPASVEAAVGGTVTIKCQASQSISNFLAWYQQKPGQPPKVLIYAASHLASGVPSRFKGSGSGTQFTLTISDLECADAATYYCQSYFYSSTSIYNAFGGGTEVVVR | nM | 2.3
Rbt10C3 (antibody, V domains shown, Recombinant rabbit monoclonal antibody, Expi293, protein A purified) VH: QSLEESGGRLVTPGTPLTLTCTASGFSLSGYTMGWVRQAPGKGLEYIGVISSGGTTYYTNWAKGRFTISKTSTTVDLKITSPTTEDTATYFCARVAFTAYGGGGFPTLHRLDLWGQGTLVTVSS VL: AQVLIQTASSVSAAVGGTVTISCQSSESVYNNDYLAWYQQKPGQPPKLLIYSASTLASGVPSRFKGSGSGTQFTLTISDLECDDAATYYCAGGYLGNNVFGGGTEVVVK | nM | 3.4
Rbt9E3.FN (antibody, V domains shown, Recombinant rabbit monoclonal antibody, Expi293, protein A purified) VH: QSVEESGGRLVTPGTPLTLTCTVSGFSLSSNAMSWVRQAPGKGLEWIGIISSSGSTYSASWAKGRFTISKTSTTMDLKITSPTTEDTATYFCARVGFFVGYGAYDYGIIHRLDLWGQGTLVTVSS VL: AAVLTQTPSPVSAAVGGTVSISCQSSKSIYNNNWLSWYQQKPGQPPKLLIYDASDLASGVPSRFEGSGSGTEFTLTISDLECDDAATYYCAGGYSGDSDYAFGGGTEVVVK | nM | 2.6
Rbt11G11 (antibody, V domains shown, Recombinant rabbit monoclonal antibody, Expi293, protein A purified) VH: QELVESGGGLVQAGESLKLSCKASGIDFSSYGISWVRQAPGKGLEWIAYIYPGFGITNYAHSVKGRFTISSDNAQNTVFLQMPSLTASDTATYFCARDLDYTGGVVGYAYVTYYFTLWGPGTLVTVSS VL: DPVLTQTPSSVEAAVGGTVTIKCQASESISSRLAWYQQKPGQPPKLLIYSASTLASGVSSRFKGSGSGTEFTLTISDLECADAATYYCQTYYGGSTTGWYVFGGGTEVVVK | nM | 31.3
Rbt13B4 (antibody, V domains shown, Recombinant rabbit monoclonal antibody, Expi293, protein A purified; also called Rb13B4) VH: QSVEESGGRLVTPGTPLTLTCTVSGFSLSSYAMGWVRQAPGKGLEWIGIINSYGNTYYANWAKGRFTISRTSTTVDLRMPSLTTEDTATYFCARDPGVSSNLWGPGTLVTVSS VL: DVVMTQTPASVSEPVGGTVTIKCQASQNIYSGLAWYQQKPGQPPKLLIYGASKLASGVSSRFKGSGSGTEFTLTISDLECADAATYYCQATYYSSNSVAFGGGTEVVVK | nM | 2.9
